Test details: AUC (0 to t) in rat at 5 mg/kg, po
Assay type: ADME, organism-based
Parameters: dose 5 mg/kg, route oral
Test settings: plasma

{"Input smiles": "CS(=O)(=O)CCCOc1ccc2c(c1)CCC1(CCN(C3CCC3)CC1)O2", "AUC(0-t)": "586 ng·h/mL"}
{"Input smiles": "O=S1(=O)CCC(COc2ccc3c(c2)CCC2(CCN(C4CCC4)CC2)O3)CC1", "AUC(0-t)": "713 ng·h/mL"}
{"Input smiles": "O=S1(=O)CCC(Oc2ccc3c(c2)CCC2(CCN(C4CCC4)CC2)O3)CC1", "AUC(0-t)": "1790 ng·h/mL"}
